- System: MS2 coat protein
- assayInfo: apparent KD of MS2 coat protein; designed switch direction (-1 OFF switch, 1 ON switch): 1; higher = weaker reporter binding
- settings: input ligand: FMN 200 uM
Param threshold (200 nM) applies to apparent KD of MS2 coat protein; output label 1 when value >= threshold, label 0 when value < threshold.

AAACGGCCGAACGGAGGGCCACAUGAGGAUCACCCAUGUACAUAGGAUAUCACACCAACGAGGCGUGAGAAGGGUGAUUAAAAC [Teisedbe] (Eterna round: R96, puzzle: Same State NG 3)    label 0
GUCCGUAUCACAGGAUAUCCUAGUCAUGAUCUAGGAGAAGGGUGGCCACAUGAGGAUCACCCAUGUGAAGUGCCAGAGGCACGA [MOD2 Xexeraed] (Eterna round: R96, puzzle: Same State NG 1)    label 1
GAGGGACAGACCAACAUGAGGAUCACCCAUGUCCUCGCAGGUCAGGAUAUCCGGCCAACAGGCAAGGAGAAGGGACGGUGAACC (Eterna round: R96, puzzle: Same State NG 3)    label 1
UGAAUAGUUACAGGAUAUGAGCCGUAAAUUGGGUCAGAAGGGUGGGUGUUCUGCGCUGUGUGUUACAUGAGGAUCACCCAUGUU [SameState NG1 #31] (Eterna round: R96, puzzle: Same State NG 1)    label 0

Lab note: next sequence to report on.
Q: Is the recorded value of apparent KD of MS2 coat protein equal to or greater than 200 nM for this sequence? GGAAUGUGAUGUUACAUGAGGAUCACCCAUGUAGUGACAACUAAGGAUAUCUGAAAGGAAGGAGAGGAGAAGGUAGGAUCACAA [AK SSNG3-V2-16] (Eterna round: R96, puzzle: Same State NG 3)
Result: label 0

====

- Test system: MS2 coat protein
- assayInfo: apparent KD of MS2 coat protein; designed switch direction (-1 OFF switch, 1 ON switch): -1; higher = weaker reporter binding
- settings: Eterna round: R95; input ligand: FMN 200 uM
# apparent KD of MS2 coat protein annotations

Below, each entry is followed by its recorded apparent KD of MS2 coat protein result.
GAGAAGGUAGGAUAUACGAAGAAAGAGGGUAGGAAGAAUACACAUGAGGAUCACCCAUGUAGAAGGACCAAGAG [Mat - Exclusion 2 - Mod of my Tesla design - D47] (puzzle: Exclusion 2)    32.9 nM
ACUACUAACACGAAAGUGUUAGUACAAUAAGCUUGUGAAACAUGAGGAUCACCCAUGUCCUCAUAAGCUCGUCUUAA [salish99_TOv2_r3_012] (puzzle: Sensor v3, turn-off variant 2)    14.4 nM

// next entry
Q: What apparent KD of MS2 coat protein value was documented for this sequence, GCAGGCGUCUUGGCUCGUCUUAUUUGGAGAGGAUUGAUAACAUGAGGAUCACCCAUGUGUGUGGGAGAGUUGCAGUG [JR_SV3TOV2_Sub017] (puzzle: Sensor v3, turn-off variant 2) ?
Result: 293 nM

====

- Tested on: MS2 coat protein
- assayInfo: apparent KD of MS2 coat protein; higher = weaker reporter binding
- settings: Eterna round: R107; input ligand: arginine 13.2 mM
measuredQuantity: apparent KD of MS2 coat protein (nM)
The reply should contain only the number, in nM.

Example entries begin here.
UGUAUGGACUGAAGGAGCGCCUCAAAUAACAUGAGGAUCACCCAUGUGGACAAAGUCCUUGGGCAGGUAGGUCGCAGUCCAUACU [ArgBX 5 #StaticStem #MS2Late]    49.1
GCACCAGGUACGGAUACCAGACAUUGCCAAUUGGGUGAACAUGAGGAUCACCCAUGUUAAGUCCCUUGGCAGCCGUACCUGGUGC [ETB NP+V+V2 #6 Same Structure]    11.4
AUUCUUUACUGAAGGAGCGUCAUUCUUACAUGAGGAUCACCCAUGUUUAUUCUUUAUGAUUGACAGGUAGGUCGCAGAUUUUUUA [#11 Same State - Arginine B]    19.5
UUAGCACAUGAGGAUCACCCAUGUCUCGAUACCAGAUAAGUUCCGAUCCCUUGGCAGCGACAAGCUUGCAAACUGCGACUAUUCU [theeternabot_sameState_MS2_Theo_A_42]    22.2
GGGUACAUCGCGGCCGCCACUCAUGUAAAUGCAUGAGGAUCACCCAUGUCGAUGGAGACAUCGGAGAGGACCGGGUGAUGUACCG    108

// next item, apparent KD of MS2 coat protein requested
Q: // returns reported apparent KD of MS2 coat protein for input UUUAAAAUAACAGAUACCAGCGUGUUAUAAAACAUGAGGAUCACCCAUGUAGUGAUCAAGCGCCCUUGGCAGCUGGUAUUUUAGG [7.E]
Result: 186

====

- Tested on: K4 kissing-loop RNA reporter;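 further: bound reporter read as fluorescence of individual clusters on recovered sequencing chips by microscopy, with normalized cluster intensities fitted with a binding model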
- assayInfo: apparent KD of K4 kissing-loop reporter; higher = weaker reporter binding
- settings: Eterna round: R107; input ligand: FMN 200 uM
Reported apparent KD of K4 kissing-loop reporter values are given for each entry in this list.
A complete answer gives the number followed by the unit.

CAACGAGUGAUGGUCGUUGACGGCCAUCCCGAGGAUAUGGGAUUUUCCAGAAGGCGGGAUCGCCCGGAGUGAUGUUCCGUGAUUU [Same State FMN A GF 15]    73.3 nM
AAUAAUAUACAAAGGCGAACGAAUAGGGAAGGAGCGCGAUAUAACGCAGGUAGGUCGCCCAUAUUUUUAGUGAUGUUAGAGAAUA [E. Arginine A Tesla 1]    938 nM
CGCCGUAAGGCGAGCGCUCCCACUCCGGAAGGAGCGCCCGAAAGGGCAGGUAGGUCGCCGGAGUGAUGUUCCGGUGGAGGGCUCG [#2 Exclusion - Arginine A Attempt #28 (Inspired by Omei)]    353 nM
UGUCAUUGGUCGGCCGCCACUAGGACCGGGUAUAACCUAGUGAUGUUAGUAAGUACGGCCGCCACUAGGACCGGGACCGAUGACU [KL-SSTryp-B19 #DoubleAptamer]    484 nM

# input for lookup
Q: Hi! What's the reported apparent KD of K4 kissing-loop reporter for AAAGGCAUAGCCCGAGUGAUGUUCGACGAUACCAGCCUCGAUAGAGGCCCUUGGCAGCGUAAAUGAUCAUGAAGCCAAGGAAUAA [whbob_Ex_Theo_A_th68] on K4 kissing-loop RNA reporter?
Result: 340 nM

====

- Tested on: MS2 coat protein
- assayInfo: apparent KD of MS2 coat protein; designed switch direction (-1 OFF switch, 1 ON switch): -1; higher = weaker reporter binding
- settings: input ligand: FMN 200 uM
Recorded apparent KD of MS2 coat protein, one value per entry.
Include the unit right after the number.

Worked set:
UCCGUGUCAGGAUAUAACUGGUCGAGCGCAGAAGCGUCCUGUUAGAAGGGACAUGAGGAUCACCCAUGUUUAAC [Eternabot (L1) Solution 74] (Eterna round: R97, puzzle: Exclusion 4)    213 nM
UGUCAGUCAGGAUAUGCAUACGUAGACAUGAGGAUCACCCAUGUGACGUGGGACUGGUGUGUAGAAGGGACGAACA [EX5 #79] (Eterna round: R97, puzzle: Exclusion 5)    29.8 nM

Kindly review the next sequence as well.
Q: Value lookup for apparent KD of MS2 coat protein; key = CAUGUCCAACGAGGAUAUGGGAAAGGAAGUGUACCAGAAGGCGUACGGACAUGAGGAUCACCCAUGUCGCGCGGCGCGAUGUGG [PowerStrip EXNG 1.1] (Eterna round: R96, puzzle: Exclusion NG 1)
Result: 47.6 nM

====

Reported apparent KD of MS2 coat protein values are given for each entry in this list.
- Test system: MS2 coat protein
- assayInfo: apparent KD of MS2 coat protein; designed switch direction (-1 OFF switch, 1 ON switch): 1; higher = weaker reporter binding
- settings: Eterna round: R95; input ligand: FMN 200 uM
Kindly provide the numeric value in nM only, without the unit symbol.

UACAAUCUAUCUGAGGAUAUCAUGAUCAUAACAUGAGGAUCACCCAUGUGCAGGAAAACUGCAUAUGAGAAGGCAGAUAGAUUGU [salish99_ss2_r3_073] (puzzle: Same State 2)    214
UGAGCCGGCACUGAGGAUAUUCAUAUUUAAACAUGAGGAUCACCCAUGUAGGCCAGAAGGCCUUGGGAGAAGGCAGGUCGGCUCC [salish99_ss2_r3_079] (puzzle: Same State 2)    25.7
AGUCCAGCGAAAGCUGGACAAAAGCAUGUACAUGAGGAUCACCCAUGUUCAUGUACAAGCUUUUUGCUCGUUUUAAA [JL mod - D95 - 15] (puzzle: Sensor for hsa-mir-208a)    590
GUAAAACAUGAGGAUCACCCAUGUAAUAAUAUGGGAGGAUAUCAGAAUGUAUGUAUGUAAUGAGAAGGCCUAAAUU [Mat - Same State 1 - Mod of Eli - D75] (puzzle: Same State 1)    73.4
UUUAGUUGCGCGCAGGAUAUGUAUUAAUAUACAUGAGGAUCACCCAUGUGAGACCAAAUAGGUCUGCAGAAGGGCGAAUCGCGAC [Laonerce - 28] (puzzle: Same State 2)    45.4

Q: Name the reported apparent KD of MS2 coat protein value associated with the sequence GACAAUCUAUCUGAGGAUAUCAUGAGAAUAACAUGAGGAUCACCCAUGUGCAGGAAAACUGCAUAUGAGAAGGCAGAUAGAUUGA [Mat - Same State 2 - Mod - D15] (puzzle: Same State 2)
Result: 48.2

Q: Param item: UGGAUCUAGGCUUGCCUGGGUCCAUGCUGACAUGAGGAUCACCCAUGUGCAUCCUACAAGCUUUUUGCUUGUCUGCC (puzzle: Sensor for hsa-mir-208a)
Result: 146

Q: Proceed to GUACUACAUGAGGAUCACCCAUGUACGCCAGUACGAGGAUAUGCAUGGGCGCUAGCUGGUGCAGAAGGCGUAGUGC [Pin2Pin #6] (puzzle: Same State 1)
Result: 21

Q: How about this sequence: UCUUGGUUUUUGCUCGUUUUUUGUGUUGAACAUGAGGAUCACCCAUGUAUUGUACGGUCCGAUUUGAUAGUGGUCCG [JMF 20] (puzzle: Sensor for hsa-mir-208a)
Result: 26.1

Q: And for UAGAGAGGAAGCGAGGAUAUCGUGUGAGGUACAUGAGGAUCACCCAUGUUUUAUGUUGAGAGAGGCGAGAAGGCGCAGGAGAAAA [JR_SS2_Sub087] (puzzle: Same State 2) ?
Result: 20

Just for reference, the supplement of paper PMC9170038 is where these values come from.
